Where these numbers come from: paper PMC5231411

molecular target: KOR in mouse striatum (Mus musculus); experiment: [35S]GTPγS binding in mouse striatal membranes
Sequence (P33534 whole entry): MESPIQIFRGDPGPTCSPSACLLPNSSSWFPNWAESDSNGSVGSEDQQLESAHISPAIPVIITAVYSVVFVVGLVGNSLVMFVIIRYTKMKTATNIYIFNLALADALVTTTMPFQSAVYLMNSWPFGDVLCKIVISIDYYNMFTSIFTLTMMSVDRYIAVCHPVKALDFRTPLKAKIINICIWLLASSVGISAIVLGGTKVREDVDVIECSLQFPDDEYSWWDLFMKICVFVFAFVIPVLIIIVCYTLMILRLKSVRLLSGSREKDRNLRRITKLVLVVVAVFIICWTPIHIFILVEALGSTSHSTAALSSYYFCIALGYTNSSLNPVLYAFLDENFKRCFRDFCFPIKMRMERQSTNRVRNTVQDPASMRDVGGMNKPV
READOUT LABEL: pEC50
Give only the number. pEC50 is defined as minus log10 of concentration in molar units.

Query: What value of pEC50 has been reported for the following compound? Cc1ccc(CSc2nnc(-c3ccccn3)n2Cc2ccco2)cc1C(F)(F)F [Triazole 1.1]
Result: 6.30
